As shown below, each of these compounds has a reported log10 IC50 value.
test system: P. knowlesi H strain; test: [3H]-labeled hypoxanthine uptake assay, P. knowlesi; assay type: cell-based; conditions: Plasmodium knowlesi; Table 1; compounds dissolved in 70% ethanol, not BSA-conjugated
Quick note: numbers are log10 of IC50, with µM as the unit.

CCCCCCCCCCCCC[C@H](O)C[C@H](O)[C@H](C)N(C)C [ESPD-0513] = 0.83
CCCCCCCCCCCCC[C@H](O)C[C@H](O)[C@@H]1CCCN1 [ESPD-0522] = 0.80
CCCCCCCCCCCCC[C@@H](O)C[C@H](O)[C@H](C)N [ESPD-0503] = 1.25

Enquiry: Using the record for CCCCCCCCCCCCC[C@H](O)C[C@@H](O)[C@H](C)N [ESPD-0505, (2S,3R,5S)-2-Aminooctadecane-3,5-diol] , state its measured log10 IC50.
Return: 1.31

Enquiry: Answer with the recorded log10 IC50 of CCCCCCCCCCCCC[C@H](O)C[C@H](O)[C@H](C)N [ESPD-0500, (2S,3S,5S)-2-aminooctadecane-3,5-diol] only.
Return: 1.02

Enquiry: Identify measured log10 IC50 corresponding to OC(c1cc(C(F)(F)F)nc2c(C(F)(F)F)cccc12)C1CCCCN1 (stereo not drawn) [Mefloquine, reference compound]
Return: -1.40

Enquiry: State, in one line, measured log10 IC50 of CCCCCCCCCCCCC[C@H](O)C[C@H](O)[C@H](C)NC [ESPD-0507, N-Methylenigmol]
Return: 0.24

* * *

assay: Mouse PK studies (plasma and RBC levels); format: in vivo; details: male, mouse, red blood cells (RBC) relative to plasma, po, 30 mg/kg, mice, 30 mg/kg orally once per day, after 5th day of dosing; read-out: drug concentrations in RBCs relative to plasma levels
MEASUREMENT_KIND: Kp at 5 day

Enquiry: Provide one value: measured Kp at 5 day of CCCCCCCCCCCCC[C@H](O)C[C@H](O)[C@H](C)N [ESPD-0500, (2S,3S,5S)-2-aminooctadecane-3,5-diol]
Return: ~3

* * *

system: P. falciparum chloroquine resistant (CQ-R) W2 strain; test: [3H]-labeled hypoxanthine uptake assay, P. falciparum W2; assay type: cell-based; conditions: Plasmodium falciparum, W2, Table 1; compounds dissolved in 70% ethanol, not BSA-conjugated; read-out: IC50 W2
MEASUREMENT_KIND: IC50 (µM)
State the answer as a number, implicitly in µM.

These solved cases illustrate the format of a correct answer.
CCCCCCCCCCCCC[C@H](O)C[C@H](O)[C@H](C)NC(C)=O = 13.1
CCCCCCCCCCCCC[C@H](O)C[C@@H](O)[C@H](C)NC = 8.09
CCCCCCCCCCCCC[C@@H](O)C[C@H](O)[C@H](C)N = 8.17
CCCCCCCCCCCCC[C@H](O)C[C@H](O)[C@H](C)N(C)C = 4.42
CCCCCCCCCCCCC[C@H](O)C[C@H](O)[C@@H]1CCCN1 = 4.39
CCCCCCCCCCCCC[C@H](O)C[C@H](O)[C@H](C)N = 7.37
CCCCCCCCCCCCC[C@H](O)C[C@H](O)[C@H](C)NC = 1.58

Enquiry: Read off the recorded IC50 for CCCCCCCCCCCCC[C@H](O)C[C@@H](O)[C@H](C)N
Return: 9.22

* * *

Below, each entry is listed alongside its reported pIC50.
test system: P. falciparum chloroquine resistant (CQ-R) W2 strain; assay: [3H]-labeled hypoxanthine uptake assay, P. falciparum W2; assay type: cell-based; conditions: Plasmodium falciparum, W2, Table 2; compounds conjugated to BSA; read-out: IC50 W2
Quick note: pIC50 means taking -log10 of the concentration in moles per liter.

Reference set, count: 9
CCCCCCCCCCCCC[C@H](O)C[C@H](O)C(C)(C)N (racemic) = 5.33
CCCCCCCCCCCCC[C@H](O)C[C@H](O)[C@H](C)NC = 6.05
CCCCCCCCCCCCC[C@H](O)CC(=O)C(C)(C)N = 5.59
CCCCCCCCCCCCC[C@@H](O)C[C@H](O)C1(N)CC1 (racemic) = 5.14
CCCCCCCCCCCCC[C@H](O)C[C@H](O)C(C)(C)NC (racemic) = 6.60
CCCCCCCCCCCCC[C@@H](O)C[C@H](O)C(C)(C)N (racemic) = 5.13
CCCCCCCCCCCCC[C@H](O)C[C@H](O)C1(N)CC1 (racemic) = 5.00
CCCCCCCCCCCCCC(O)C/C(=N\O)C(C)(C)N (stereo not shown) = 5.00
CCCCCCCCCCCCC[C@H](O)C[C@H](O)[C@H](C)N = 5.04

Enquiry: State its pIC50: OC(c1cc(C(F)(F)F)nc2c(C(F)(F)F)cccc12)C1CCCCN1 (stereo not shown) [Mefloquine, reference compound]
Return: 8.40
